TARGET SYSTEM: T1, MftR R29A (Mycobacterium smegmatis mc2155, UniProt A0QSB5 1-200, R29A)
T1 sequence: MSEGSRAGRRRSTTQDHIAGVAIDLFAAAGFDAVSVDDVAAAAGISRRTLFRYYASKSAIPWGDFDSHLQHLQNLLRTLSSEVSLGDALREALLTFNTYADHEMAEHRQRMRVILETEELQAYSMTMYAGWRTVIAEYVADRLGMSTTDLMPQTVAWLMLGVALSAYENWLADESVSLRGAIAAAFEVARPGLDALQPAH
ASSAY REMARKS: fluorescence polarization; EMSA: 50 mM Hepes, 50 mM NaCl, 0.1 mM EDTA, pH 7.5, room temperature 10 min, 5% PAGE in 1x TBE on ice; footprinting: 30 C 30 min; FP conditions not in material. Text fold changes for R29A/R48A and L120R/M127A are swapped relative to Table 2; table values used
CONDITION SUMMARY: protein: recombinant; tags: His-tag (pET-28a); chain copies: 2; label: 6-FAM; blunt
OUTCOME MEASURE: pKd
pKd here is simply -log10 of the concentration when that concentration is written in mol/L.

Tell us which pKd value is on record for FAM-Omft (dsDNA) DNA 1: TCCATTCTGGCACTCGATGCCATATAT DNA 2: ATATATGGCATCGAGTGCCAGAATGGA
4.69
